We begin with a simple list: items and their reported pIC50.
# Experimental Target: UniProt O14746
# Sequence (O14746 whole entry): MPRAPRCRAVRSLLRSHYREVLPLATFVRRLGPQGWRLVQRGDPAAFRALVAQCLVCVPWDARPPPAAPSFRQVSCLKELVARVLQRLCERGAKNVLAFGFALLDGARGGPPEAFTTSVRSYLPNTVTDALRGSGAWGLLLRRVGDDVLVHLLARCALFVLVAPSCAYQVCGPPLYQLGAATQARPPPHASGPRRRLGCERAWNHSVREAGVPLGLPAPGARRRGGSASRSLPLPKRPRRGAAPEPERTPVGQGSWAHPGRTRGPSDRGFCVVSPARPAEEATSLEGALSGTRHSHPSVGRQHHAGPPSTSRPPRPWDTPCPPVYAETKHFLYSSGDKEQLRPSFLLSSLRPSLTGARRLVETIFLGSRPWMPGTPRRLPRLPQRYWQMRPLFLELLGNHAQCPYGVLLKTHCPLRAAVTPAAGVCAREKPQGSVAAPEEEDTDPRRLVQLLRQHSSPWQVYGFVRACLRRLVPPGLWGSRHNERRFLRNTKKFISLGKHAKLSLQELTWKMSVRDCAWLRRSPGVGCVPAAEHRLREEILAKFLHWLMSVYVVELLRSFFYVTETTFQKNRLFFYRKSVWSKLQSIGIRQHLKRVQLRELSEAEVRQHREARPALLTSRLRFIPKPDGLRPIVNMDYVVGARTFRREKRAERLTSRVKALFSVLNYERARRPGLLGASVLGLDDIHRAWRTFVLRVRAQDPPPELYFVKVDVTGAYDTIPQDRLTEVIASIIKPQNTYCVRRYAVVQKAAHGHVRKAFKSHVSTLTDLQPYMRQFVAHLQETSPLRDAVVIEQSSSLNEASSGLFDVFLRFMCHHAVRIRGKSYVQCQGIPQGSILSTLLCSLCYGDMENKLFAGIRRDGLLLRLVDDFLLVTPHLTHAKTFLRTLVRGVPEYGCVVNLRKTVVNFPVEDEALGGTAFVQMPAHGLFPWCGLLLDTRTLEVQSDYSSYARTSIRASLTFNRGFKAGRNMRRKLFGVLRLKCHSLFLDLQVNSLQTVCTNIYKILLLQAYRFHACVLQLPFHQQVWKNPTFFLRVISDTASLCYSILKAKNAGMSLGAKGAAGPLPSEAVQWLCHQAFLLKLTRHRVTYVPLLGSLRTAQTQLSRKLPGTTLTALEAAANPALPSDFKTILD
# Measurement Notes: Inhibitory activity against telomerase extracted from HCT 116 cell lines
# Assay type: cell-free
pIC50: −log10 of the molar value.

Some solved entries appear below for comparison.
[[record]]
cpd_smiles = "CC(C)(C)OC(=O)N[C@H](Cc1cc2ccccc2[nH]1)C(=O)N[C@H](Cc1c[nH]c2ccccc12)C(=O)NCCCC(=O)NCC(=O)NCCCCCCOP(=O)(O)Oc1ccccc1Cl"
experimental_target = "UniProt O14746"
obs_value = "< 4.00"

[[record]]
cpd_smiles = "N[C@@H](Cc1cc2ccccc2[nH]1)C(=O)N[C@@H](Cc1c[nH]c2ccccc12)C(=O)NCCCCCCCCCCCCOP(=O)(O)Oc1ccccc1Cl"
experimental_target = "UniProt O14746"
obs_value = 4.95


Query: For CC(C)(C)OC(=O)N[C@@H](Cc1cc2ccccc2[nH]1)C(=O)N[C@H](Cc1c[nH]c2ccccc12)C(=O)NCCCC(=O)NCC(=O)NCCCCCCOP(=O)(O)Oc1ccccc1Cl , what is its reported pIC50?
Result: < 4.00
